- Species: Mus musculus
- PROCEDURE_TEXT: Induction of apoptosis in mouse 66cl-4GFP cells assessed as PARP cleavage at 20 uM after 15 hrs by Western blot analysis
- Format: functional, cell-based
Activity calls are given as the source filed them. The calls are words filed in the database; no cut-off is given here.
Reply using exactly one outcome from active, inactive

# example entries with known answers
{"MOLECULE": "Cc1c(C)c2c(c(C)c1OCC(=O)O)CC[C@@](C)(CCC[C@H](C)CCC[C@H](C)CCCC(C)C)O2", "CATEGORY": "active"}
{"MOLECULE": "CC(C)CCC[C@@H](C)CCC[C@@H](C)CCC[C@]1(C)CCc2cc(O)c(F)cc2O1", "CATEGORY": "inactive"}
{"MOLECULE": "CC(C)CCCC(C)CCCC(C)CCOCC1(C)CCc2cc(OCC(=O)O)c(F)cc2O1 (racemic)", "CATEGORY": "active"}
{"MOLECULE": "Cc1c(C)c2c(c(C)c1OCC(=O)O)CC[C@@](C)(COCCC(C)CCCC(C)CCCC(C)C)O2 (mixture of isomers)", "CATEGORY": "active"}
{"MOLECULE": "Cc1c(C)c2c(c(C)c1OCC(=O)O)CC[C@](C)(COCCC(C)CCCC(C)CCCC(C)C)O2 (mixture of isomers)", "CATEGORY": "active"}

Kindly review the next molecule as well.
Exercise: Outcome? CC(C)CCCC(C)CCCC(C)CCCC1(C)CCc2cc(OCC(=O)O)c(F)cc2O1 (racemic)
Solution: active

====

- Tested on: MCF7
- PROCEDURE_TEXT: Induction of apoptosis in human MCF7 cells by AnnexinV/PI/FITC-based flow cytometric analysis
- Type: functional, cell-based
ASSAY_READOUT: EC50 (µM)
Note: unit µM is implicit; provide only the numeric part.

Known results for molecules:
{"MOLECULE": "Cc1c(C)c2c(c(C)c1OCC(=O)O)CC[C@](C)(COCCC(C)CCCC(C)CCCC(C)C)O2 (mixture of isomers)", "ASSAY_READOUT": "EC50", "UNIT_DESCRIPTOR": "µM", "EXPERIMENTAL_RESULT": 29}
{"MOLECULE": "CC(C)CCCC(C)CCCC(C)CCOCC1(C)CCc2cc(OCC(=O)O)c(F)cc2O1 (racemic)", "ASSAY_READOUT": "EC50", "UNIT_DESCRIPTOR": "µM", "EXPERIMENTAL_RESULT": 35}
{"MOLECULE": "Cc1c(C)c2c(c(C)c1OCC(=O)O)CC[C@@](C)(COCCC(C)CCCC(C)CCCC(C)C)O2 (mixture of isomers)", "ASSAY_READOUT": "EC50", "UNIT_DESCRIPTOR": "µM", "EXPERIMENTAL_RESULT": 21}
{"MOLECULE": "CC(C)CCCC(C)CCCC(C)CCCC1(C)CCc2cc(OCC(=O)O)c(F)cc2O1 (racemic)", "ASSAY_READOUT": "EC50", "UNIT_DESCRIPTOR": "µM", "EXPERIMENTAL_RESULT": 60}

Now look at this one.
The molecule identified as Cc1c(C)c2c(c(C)c1OCC(=O)O)CC[C@@](C)(CCC[C@H](C)CCC[C@H](C)CCCC(C)C)O2 registered its EC50 at 51

Hey, just so you know, these numbers are from ChEMBL document CHEMBL2150903.
